The reported numbers originate from ChEMBL document CHEMBL1667758.

system: Calf thymus DNA; assay: Binding affinity to calf thymus DNA assessed as hypochromicity at DNA/drug ratio 4 after 15 mins by UV-vis spectrophotometer analysis; type: nucleic-acid assay; conditions: Bos taurus
metric.name: Activity (%)
Give your result in % as a bare value.

Below, each entry is followed by its recorded Activity result.
Incoming: I have this compound here, COc1ccc(-c2nc3cc(-c4nc5cc(N6CCN(C)CC6)ccc5[nH]4)ccc3[nH]2)cc1OC , and I need its recorded Activity.
Outgoing: 1

Incoming: # iterate: CCOc1ccc(-c2nc3cc(-c4nc5cc(N6CCN(C)CC6)ccc5[nH]4)ccc3[nH]2)cc1
Outgoing: 38

Incoming: What do you have for COc1cc(-c2nc3ccc(-c4nc5ccc(N6CCN(C)CC6)cc5[nH]4)cc3[nH]2)cc(OC)c1OC ?
Outgoing: 27

Incoming: CN1CCN(c2ccc3nc(-c4ccc5nc(-c6ccc(F)cc6F)[nH]c5c4)[nH]c3c2)CC1 , same question.
Outgoing: -20

---
Incoming: Any idea what Activity was measured for CN1CCN(c2ccc3nc(-c4ccc5nc(-c6ccc(Cl)cc6Cl)[nH]c5c4)[nH]c3c2)CC1 ?
Outgoing: 28
